Let's look at some compounds and their measured TGI.
Tested on: M19-MEL melanoma
Test: NCI tumour cell line growth inhibition, 48 h
MEASUREMENT NAME: TGI

[
  {
    "COMPOUND": "C/C(CC(=O)Nc1cc(C)ccc1C)=N\\NC(=O)c1ccncc1",
    "TARGET OR SYSTEM": "M19-MEL melanoma",
    "REPORTED MEASUREMENT": "> 100 µM"
  },
  {
    "COMPOUND": "O=C(N/C(=C\\c1cccc([N+](=O)[O-])c1)c1nc2ccc([N+](=O)[O-])cc2[nH]1)c1ccccc1",
    "TARGET OR SYSTEM": "M19-MEL melanoma",
    "REPORTED MEASUREMENT": "> 100 µM"
  },
  {
    "COMPOUND": "CN(C)CCNC(=O)c1cccc2ccc(-c3ccncc3)nc12",
    "TARGET OR SYSTEM": "M19-MEL melanoma",
    "REPORTED MEASUREMENT": "4.86 µM"
  },
  {
    "COMPOUND": "CCN(CC)C(c1ccc(N(C)C)cc1)C(c1ccc(N(C)C)cc1)N(CC)CC (stereo unspecified)",
    "TARGET OR SYSTEM": "M19-MEL melanoma",
    "REPORTED MEASUREMENT": "> 73 µM"
  },
  {
    "COMPOUND": "CC1CN1C(=O)NCCCCCCNC(=O)N1CC1C (stereo unspecified)",
    "TARGET OR SYSTEM": "M19-MEL melanoma",
    "REPORTED MEASUREMENT": "> 100 µM"
  },
  {
    "COMPOUND": "CC(SC(=S)N1CCOCC1)c1cc2oc(=O)n(C)c2cc1Cl (stereo unspecified)",
    "TARGET OR SYSTEM": "M19-MEL melanoma",
    "REPORTED MEASUREMENT": "> 100 µM"
  },
  {
    "COMPOUND": "C[C@@H]1OC(=O)N2CCCC(=C3SCCCS3)C12 (stereo partly specified)",
    "TARGET OR SYSTEM": "M19-MEL melanoma",
    "REPORTED MEASUREMENT": "> 100 µM"
  },
  {
    "COMPOUND": "NC12CC3CC(C1)CC(C(=O)O)(C3)C2",
    "TARGET OR SYSTEM": "M19-MEL melanoma",
    "REPORTED MEASUREMENT": "> 100 µM"
  },
  {
    "COMPOUND": "O=C1NC(=O)C(CCC(=O)c2ccc3ccccc3c2)C(=O)N1",
    "TARGET OR SYSTEM": "M19-MEL melanoma",
    "REPORTED MEASUREMENT": "> 100 µM"
  },
  {
    "COMPOUND": "CCOCC(=O)N[C@H]1CCc2cc(OC)c(OC)c(OC)c2-c2ccc(OC)c(=O)cc21",
    "TARGET OR SYSTEM": "M19-MEL melanoma",
    "REPORTED MEASUREMENT": "> 100 µM"
  },
  {
    "COMPOUND": "C/C(O)=C(\\N=O)C(=O)Nc1ccc(Cl)cc1Cl",
    "TARGET OR SYSTEM": "M19-MEL melanoma",
    "REPORTED MEASUREMENT": "> 100 µM"
  }
]
